Measurement target: VEGF165 (Homo sapiens, UniProt P15692-4 P15692-4:27-191)
Sequence (P15692 other isoform, or with tags, fused parts or gaps): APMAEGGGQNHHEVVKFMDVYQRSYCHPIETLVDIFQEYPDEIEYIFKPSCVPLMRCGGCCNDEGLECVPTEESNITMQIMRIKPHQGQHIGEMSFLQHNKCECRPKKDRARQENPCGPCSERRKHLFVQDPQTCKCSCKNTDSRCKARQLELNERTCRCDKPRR
Assay overview: filter; 37 C
Measurement setup: tags: carrier-free, Sf 21 insect cell expressed, R & D Systems; chain copies: 2 (inferred)
Measure: pKd
Reminder that pKd is minus the log10 of a molar concentration.

Returns the measured pKd for the input binder. Input: VP30.13 (ssRNA, 2'-F pyrimidines) RNA: GGGAGGACGAUGCGGGAUAACAGAAGAAUUGGUGAACAACGUGGUCAGACGACUCGCCCGA
11.00

State the recorded pKd for this entry: VP40.3 (ssRNA, 2'-F pyrimidines) RNA: GGGAGGACGAUGCGGCAAAAGUUUGAGUUGAUCUGAUACGUUUCAGUAUUGGCGUCAGACGACUCGCCCGA
8.70

Entry VT30.21 (ssRNA, 2'-F pyrimidines) RNA: GGGAGGACGAUGCGGAUCAGUGAAUGCUUAUAGACCGUAUUGCGUCAGACGACUCGCCCGA has what pKd?
11.22

// returns reported pKd for input VP40.14 (ssRNA, 2'-F pyrimidines) RNA: GGGAGGACGAUGCGGGUACCAGAAUGAGCAACCGAAUGAAGAACUGGACGCUGCUCAGACGACUCGCCCGA
11.10

What measured pKd goes with VP30.31 (ssRNA, 2'-F pyrimidines) RNA: GGGAGGACGAUGCGGUAACCGAUUGAACUUCUUGGACGCUACCGUCAGACGACUCGCCCGA ?
11.22
